# System: MCF7 breast
# Assay: NCI tumour cell line growth inhibition, 48 h
Property name: GI50

Compound: CCOC(=O)c1c(Cl)c2c(n1Cc1cc(OC)cc(OC)c1)-c1oncc1CCC2
Result: 168 nM
--
Compound: COC(=O)Nc1nc2ccc(Oc3ccc(NC(=O)Nc4cccc(Cl)c4)cc3)cc2[nH]1
Result: 307 nM
--
Compound: O=C1/C(=C/c2ccc(Cl)cc2)CN(C(=O)C(Cl)Cl)C/C1=C\c1ccc(Cl)cc1
Result: 44.1 nM
--
Compound: COc1cccc2c1c1nc3cc(C)c(C)cc3nc1n2CCN(C)C
Result: 2130 nM
--
Compound: Cn1cc(C2=C(c3c4n(c5ccccc35)CCC(CN)CC4)C(=O)NC2=O)c2ccccc21 (centres undefined)
Result: 3480 nM
--
Compound: O=C1/C(=C/C(Cl)=C/c2ccccc2)SC(=S)N1CCc1ccc(O)cc1
Result: 1850 nM
--
Compound: O=C(/C=C\Sc1nccc(C(F)(F)F)n1)c1ccc(Br)cc1
Result: 28000 nM
--
Compound: Cc1ccc(C(=O)NC2CCCCC2)cc1-c1ccc(C(=O)NCC2CC2)cc1
Result: > 23900 nM
--
Compound: C/C(=C\c1ccn(-c2ccc(N)cc2)n1)[C@@H]1C[C@@H]2O[C@]2(C)CCC[C@H](C)[C@H](O)[C@@H](C)C(=O)C(C)(C)[C@@H](O)CC(=O)O1
Result: 15.2 nM

* * *

# Test system: HCC-2998 colon
# Assay: NCI tumour cell line growth inhibition, 48 h; in the data active means GI50 below about 0.43 µM; inactive means the rest
Labels: 1 (active), 0 (inactive)

Compound: NC(=O)Oc1cc(OC(N)=O)cc(N(CCCl)CCCl)c1
Assigned class: 0
//
Compound: CC[C@H](C)C(=O)O[C@H]1CCC=C2C=C[C@H](C)C(CCC3C[C@@H](O)CC(=O)O3)[C@H]21 (stereo not given in full)
Assigned class: 0
//
Compound: C=C[C@]1(C)C=C2C(=O)[C@@]3(O)OC(=O)[C@@]4(CCCC(C)(C)[C@H]34)[C@@]2(O)CC1
Assigned class: 0
//
Compound: CC1(C)C2CCC13C(=O)C1OC3(C2)C2C(=O)c3c(O)ccc(O)c3C(=O)C12 (stereo not given)
Assigned class: 0
//
Compound: O=C1/C(=C/c2ccc(Cl)cc2)CN(C(=O)C(Cl)Cl)C/C1=C\c1ccc(Cl)cc1
Assigned class: 1
//
Compound: CN1CCN(Cc2ccc(NC(=O)c3cncc(C#Cc4c(N)ncc5cc(F)ccc45)c3)cc2C(F)(F)F)CC1
Assigned class: 0
//
Compound: CCC[CH2][Sn]([CH2]CCC)([S]C1=NCCS1)[S]C1=NCCS1
Assigned class: 0
//
Compound: CCOn1cc(C2=C(c3c[nH]c4ccccc34)C(=O)NC2=O)c2ccccc21
Assigned class: 1
//
Compound: CCCCCCCCCCCCCCCCOCCCOP(=O)(O)C1CCCN(O)C1=O (stereo not given)
Assigned class: 0
//
Compound: COc1cccc2c1c1nc3cc(C)c(C)cc3nc1n2CCN(C)C
Assigned class: 0
//
Compound: COc1ccc(F)cc1C(=O)c1cnc(NC2CCN(S(C)(=O)=O)CC2)nc1N
Assigned class: 0
//
Compound: CO[C@H]1CC[C@@]2(C)C(=CC[C@H]3[C@@H]4C[C@H](O)C[C@@]4(C)CC[C@@H]32)C1
Assigned class: 0
//
Compound: CN(C)CC1CCn2c(c(C3=C(c4cn(C)c5ccccc45)C(=O)NC3=O)c3ccccc32)C1 (stereo not given)
Assigned class: 0
//
Compound: CC(=O)OCC1OC(S[As](C)C)C(OC(C)=O)C1OC(C)=O (stereo not given)
Assigned class: 1
//
Compound: COc1cc(-c2nc3ccccc3s2)ccc1OCc1nc2n(n1)S(=O)(=O)c1ccccc1N2C
Assigned class: 0

* * *

# Test system: COLO 205 colon
# Assay: NCI tumour cell line growth inhibition, 48 h; in the data active means GI50 below about 0.43 µM; inactive means the rest
Labels: active, inactive

Compound: O=C(Cn1ccnc1[N+](=O)[O-])NCC(F)(F)C(F)(F)F
Assigned class: inactive
//
Compound: CCCC(=O)NNc1[nH]c(-c2ccc(OC)cc2)cc1C(=O)OCC
Assigned class: inactive
//
Compound: CCN(CC)CCOc1cc2c(C(=O)OC)c(C)oc2cc1C(C)=O
Assigned class: inactive
//
Compound: C/C(=C\c1ccn(-c2ccc(N)cc2)n1)[C@@H]1C[C@@H]2O[C@]2(C)CCC[C@H](C)[C@H](O)[C@@H](C)C(=O)C(C)(C)[C@@H](O)CC(=O)O1
Assigned class: active
//
Compound: O=C(/C=C\Sc1nccc(C(F)(F)F)n1)c1ccc(Br)cc1
Assigned class: inactive
//
Compound: Cc1ccc(C(=O)NC2CCCCC2)cc1-c1ccc(C(=O)NCC2CC2)cc1
Assigned class: inactive
//
Compound: COc1ccc(F)cc1C(=O)c1cnc(NC2CCN(S(C)(=O)=O)CC2)nc1N
Assigned class: inactive
//
Compound: Cn1cnc2c(NCc3ccccc3)nc(NCCO)nc21
Assigned class: inactive
//
Compound: COC(=O)[C@@H](C)C[C@H](Cc1ccccc1)NC(=O)c1csc([C@@H](C[C@H](C(C)C)N(C)C(=O)[C@@H](NC(=O)[C@H]2CCCCN2C)C(C)C)OC(C)=O)n1
Assigned class: active
//
Compound: COC(=O)Nc1nc2ccc(Oc3ccc(NC(=O)Nc4cccc(Cl)c4)cc3)cc2[nH]1
Assigned class: inactive
//
Compound: CC(C)=CCC/C(C)=C/CC/C(=C/COP(=O)(OCc1ccc([N+](=O)[O-])o1)N(C)CCCCCl)C(C)(C)C (centres undefined)
Assigned class: inactive
//
Compound: CN(C)CC1CCn2c(c(C3=C(c4cn(C)c5ccccc45)C(=O)NC3=O)c3ccccc32)C1 (centres undefined)
Assigned class: inactive
//
Compound: Cc1cc(C)nc(SC2=C(Nc3cccc(Cl)c3)C(=O)N(Cc3ccccc3)C2=O)n1
Assigned class: inactive
//
Compound: C#C[C@@]1(O)[C@@H](CO)O[C@@H](n2cc(F)c3c(N)ncnc32)[C@@H]1O
Assigned class: active

* * *

# Test system: HCC-2998 colon
# Assay: NCI tumour cell line growth inhibition, 48 h

Structure smiles string: COc1ccc2c(c1)/C(=C\c1cccc(/C=C3/C(=O)Nc4ccc(OC)cc43)n1)C(=O)N2
Value relation sign: =
TGI, µM: 3.58
//
Structure smiles string: ON(CCc1ccccn1)Cc1ccccc1
Value relation sign: >
TGI, µM: 100
//
Structure smiles string: O=C1/C(=C/C(Cl)=C/c2ccccc2)SC(=S)N1CCc1ccc(O)cc1
Value relation sign: =
TGI, µM: 3.72
//
Structure smiles string: O=C(/C=C/c1cccs1)c1ccc(C(=O)/C=C/c2cccs2)cc1
Value relation sign: >
TGI, µM: 100

* * *

# Tested on: SK-MEL-5 melanoma
# Assay: NCI tumour cell line growth inhibition, 48 h; in the data active means GI50 below about 0.43 µM; inactive means the rest
Labels: active, inactive

Molecule: CCCCCCCCCCCCCCCCOCCCOP(=O)(O)C1CCCN(O)C1=O (configuration not stated)
Assigned class: inactive
--
Molecule: Cc1ccc(C(=O)NC2CCCCC2)cc1-c1ccc(C(=O)NCC2CC2)cc1
Assigned class: inactive
--
Molecule: C/C(=C\c1ccn(-c2ccc(N)cc2)n1)[C@@H]1C[C@@H]2O[C@]2(C)CCC[C@H](C)[C@H](O)[C@@H](C)C(=O)C(C)(C)[C@@H](O)CC(=O)O1
Assigned class: active
--
Molecule: O=C(Cn1ccnc1[N+](=O)[O-])NCC(F)(F)C(F)(F)F
Assigned class: inactive
--
Molecule: CO[C@H](C(=O)N[C@@H](CCCCNC(=O)OCc1ccccc1)C(=O)OC(C)(C)C)[C@@H]1Cc2cc3cc(OC4CC(OC5CC(O)C(O)C(C)O5)C(O)C(C)O4)c(C)c(O)c3c(O)c2C(=O)[C@H]1OC1CC(OC2CC(OC3CC(C)(O)C(O)C(C)O3)C(O)C(C)O2)C(O)C(C)O1 (some centres not stated)
Assigned class: inactive
--
Molecule: Cc1ccc(NC(=O)c2ccnc(N3CCCC3)c2)cc1-c1ccc(C(=O)NCC2CC2)cc1
Assigned class: inactive
--
Molecule: CCCC(=O)NNc1[nH]c(-c2ccc(OC)cc2)cc1C(=O)OCC
Assigned class: inactive

* * *

# System: RXF 393 renal
# Assay: NCI tumour cell line growth inhibition, 48 h
Below, each entry is listed alongside its reported TGI.
Property name: TGI (µM)

Compound: O=C(O)/C(Cl)=C(\Cl)C(=O)Nc1ccccc1
Property name: TGI
Value relation sign: >
Quantitative result: 100
--
Compound: COC1CC2CCC(C)[C@](O)(O2)C(=O)C(=O)N2CCCCC2C(=O)OC(C(C)CC2CCC(O)C(OC)C2)CC(=O)C(C)C=C(C)C(OC(=O)CN(C)C)C(OC)C(=O)C(C)CC(C)/C=C/C=C/C=C\1C (some centres undefined)
Property name: TGI
Value relation sign: =
Quantitative result: 15.5
--
Compound: COC(=O)N/N=C(\C)C(CN1CCOCC1)C(c1ccccc1)c1cc2ccccc2oc1=O (centres undefined)
Property name: TGI
Value relation sign: >
Quantitative result: 100
--
Compound: CSc1sc(=S)sc1SC
Property name: TGI
Value relation sign: >
Quantitative result: 100
--
Compound: C/C(=C\c1c[nH]c2ccccc12)[N+](=O)[O-]
Property name: TGI
Value relation sign: =
Quantitative result: 11.5
--
Compound: COc1ccc(F)cc1C(=O)c1cnc(NC2CCN(S(C)(=O)=O)CC2)nc1N
Property name: TGI
Value relation sign: =
Quantitative result: 6.58
--
Compound: CCOC(=O)C1C(c2ccc([N+](=O)[O-])cc2)NC(c2ccc([N+](=O)[O-])cc2)C(C(=O)OC)S1(=O)=O (centres undefined)
Property name: TGI
Value relation sign: >
Quantitative result: 100
--
Compound: O=C1/C(=C/c2ccc(Cl)cc2)CN(C(=O)C(Cl)Cl)C/C1=C\c1ccc(Cl)cc1
Property name: TGI
Value relation sign: =
Quantitative result: 0.378
--
Compound: CN(CCC(=O)O)S(=O)(=O)c1ccccc1
Property name: TGI
Value relation sign: >
Quantitative result: 100
